Reported Binding Signal (fold over 6E7 Parental antibody) values are given for each entry in this list.
Molecular target: T1, human TREM2 (human, UniProt Q9NZC2 19-174, limits assumed)
T1 construct: also called triggering receptor expressed on myeloid cells 2
T1 sequence: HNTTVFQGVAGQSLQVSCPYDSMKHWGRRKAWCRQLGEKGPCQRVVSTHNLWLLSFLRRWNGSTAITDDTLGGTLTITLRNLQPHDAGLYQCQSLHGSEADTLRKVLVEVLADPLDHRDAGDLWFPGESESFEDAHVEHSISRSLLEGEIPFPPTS
Assay: 2nd screen 10 nM
Give just the numeric value; fold need not be written.

binder | quantity unit | numeric value
V41 (antibody, V domains shown) VH: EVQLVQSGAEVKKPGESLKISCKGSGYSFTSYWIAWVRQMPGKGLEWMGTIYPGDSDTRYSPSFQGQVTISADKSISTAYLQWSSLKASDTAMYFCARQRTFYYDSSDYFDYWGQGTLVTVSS VL: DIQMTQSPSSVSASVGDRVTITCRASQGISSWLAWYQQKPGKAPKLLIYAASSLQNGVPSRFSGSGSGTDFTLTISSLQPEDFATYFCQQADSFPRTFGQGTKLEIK | fold | 1.72
V75 (antibody, V domains shown) VH: EVQLVQSGAEVKKPGESLKISCKGSGYSFTSYWIAWVRQMPGKGLEWMGIIYPGDSDTRYSPSFQGQVTISADKSISTAYLQWSSLKASDTAMYFCARGRTFYYDSSDYFDYWGQGTLVTVSS VL: DIQMTQSPSSVSASVGDRVTITCRASQGISSWLAWYQQKPGKAPKLLIYAASSLQAGVPSRFSGSGSGTDFTLTISSLQPEDFATYFCQQADSYPRTFGQGTKLEIK | fold | 4.52
V15 (antibody, V domains shown) VH: EVQLVQSGAEVKKPGESLKISCKGSGYSFASYWIAWVRQMPGKGLEWMGTIYPGDSDTRYSPSFQGQVTISADKSISTAYLQWSSLKASDTAMYFCARSRTFYYDSSDYFDYWGQGTLVTVSS VL: DIQMTQSPSSVSASVGDRVTITCRASQGISSWLAWYQQKPGKAPKLLIYAASWLQNGVPSRFSGSGSGTDFTLTISSLQPEDFATYFCQQADSYPRTFGQGTKLEIK | fold | 4.78
V62 (antibody, V domains shown) VH: EVQLVQSGAEVKKPGESLKISCKGSGYSFGSYWIAWVRQMPGKGLEWMGIIYPGDSDTRYAPSFQGQVTISADKSISTAYLQWSSLKASDTAMYFCARQRTFYYDSSGYFDYWGQGTLVTVSS VL: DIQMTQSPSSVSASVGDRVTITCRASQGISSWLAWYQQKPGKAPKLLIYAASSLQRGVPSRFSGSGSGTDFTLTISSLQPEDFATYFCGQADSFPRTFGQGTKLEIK | fold | 2.89
V16 (antibody, V domains shown) VH: EVQLVQSGAEVKKPGESLKISCKGSGYSMTSYWIAWVRQMPGKGLEWMGIIYPGDGDTRYSPSFQGQVTISADKSISTAYLQWSSLKASDTAMYFCARSRTFYYDSSDYFDYWGQGTLVTVSS VL: DIQMTQSPSSVSASVGDRVTITCRASQGISSWLAWYQQKPGKAPKLLIYAASNLQNGVPSRFSGSGSGTDFTLTISSLQPEDFATYFCQQADSFPRTFGQGTKLEIK | fold | 4.04
V25 (antibody, V domains shown) VH: EVQLVQSGAEVKKPGESLKISCKGSGYSFGSYWIAWVRQMPGKGLEWMGLIYPGDSDTRYSPSFQGQVTISADKSISTAYLQWSSLKASDTAMYFCARSRTFYYDSSDYFDYWGQGTLVTVSS VL: DIQMTQSPSSVSASVGDRVTITCRASQGISSWLAWYQQKPGKAPKLLIYAASSLANGVPSRFSGSGSGTDFTLTISSLQPEDFATYFCQQADSMPRTFGQGTKLEIK | fold | 4.7
V84 (antibody, V domains shown) VH: EVQLVQSGAEVKKPGESLKISCKGSGYGFTSYWIAWVRQMPGKGLEWMGIIYPGDSDTRYSPSFQGQVTISADKSISTAYLQWSSLKASDTAMYFCARQRTFYYDSSDYSDYWGQGTLVTVSS VL: DIQMTQSPSSVSASVGDRVTITCRASQGISSWLAWYQQKPGKAPKLLIYGASSLQNGVPSRFSGSGSGTDFTLTISSLQPEDFATYFCQQADSFPRTFGQGTKLEIK | fold | 1.62
V26 (antibody, V domains shown) VH: EVQLVQSGAEVKKPGESLKISCKGSGYSFTSYWIGWVRQMPGKGLEWMGTIYPGDSDTRYSPSFQGQVTISADKSISTAYLQWSSLKASDTAMYFCARQRTMYYDSSDYFDAWGQGTLVTVSS VL: DIQMTQSPSSVSASVGDRVTITCRASQGISSWLAWYQQKPGKAPKLLIYAASSLQRGVPSRFSGSGSGTDFTLTISSLQPEDFATYFCQQADSYPRTFGQGTKLEIK | fold | 3.47

input: // returns reported Binding Signal (fold over 6E7 Parental antibody) for input V40 (antibody, V domains shown) VH: EVQLVQSGAEVKKPGESLKISCKGSGYSFGSYWIAWVRQMPGKGLEWMGIIYPGDSDVRYSPSFQGQVTISADKSISTAYLQWSSLKASDTAMYFCARQRTFYYDSSDYSDYWGQGTLVTVSS VL: DIQMTQSPSSVSASVGDRVTITCRASQGISSWLAWYQQKPGKAPKLLIYAASSLQLGVPSRFSGSGSGTDFTLTISSLQPEDFATYFCQQADRFPRTFGQGTKLEIK
output: 4.16

input: Again, but for V87 (antibody, V domains shown) VH: EVQLVQSGAEVKKPGESLKISCKGSGYSFRSYWIAWVRQMPGKGLEWMGIIYPGDSDVRYSPDFQGQVTISADKSISTAYLQWSSLKASDTAMYFCARSRTFYYDSSDYFDYWGQGTLVTVSS VL: DIQMTQSPSSVSASVGDRVTITCRASQGISSWLAWYQQKPGKAPKLLIYAASSLQWGVPSRFSGSGSGTDFTLTISSLQPEDFATYFCQQADSFPRTFGQGTKLEIK
output: 3.93
